B1: library; a variant is named by its letters at N, in order (parent)
chain: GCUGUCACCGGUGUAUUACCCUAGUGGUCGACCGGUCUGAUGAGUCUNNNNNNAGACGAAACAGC

Variants of: B1
Assay: normalized RNA/DNA level with ligand (relative to sTRSVctl = 100) (log10 (% of sTRSVctl)); ligand: hypoxanthine (xanthine aptamer); higher = less ribozyme self-cleavage, higher mRNA level
Conditions: ligand concentration (+) RNA-Seq: 5 mM, HEK293T, reporter: mCherry (pCS4076), ligand present: yes
VALUE_KIND: normalized RNA/DNA level with ligand (log10)

Some solved cases for reference:
{"VARIANT_DESCRIPTOR": "ACUGAA", "ASSAY_RESULT": 1.92}
{"VARIANT_DESCRIPTOR": "GCAGGA", "ASSAY_RESULT": 1.91}
{"VARIANT_DESCRIPTOR": "GGAUGG", "ASSAY_RESULT": 1.85}
{"VARIANT_DESCRIPTOR": "UUAGGA", "ASSAY_RESULT": 1.86}
{"VARIANT_DESCRIPTOR": "AGUCGG", "ASSAY_RESULT": 1.85}
{"VARIANT_DESCRIPTOR": "CCGCCC", "ASSAY_RESULT": 2.03}

Could you report normalized RNA/DNA level with ligand (log10) for every entry in the following list?
1. AAAAAU
2. CUGCUU
3. ACUCUU
4. CGGGGA
5. CUAUUC

[1.9, 1.96, 1.95, 1.97, 2]

The reported measurements were obtained from the supplement of paper PMC6757056.
